Values from ChEMBL document CHEMBL1127026

- Test system: 5-HT3 receptor (Cavia porcellus)
- test-details: Tested for the antagonistic activity against 5-hydroxytryptamine 3 receptor from guinea pig ileum
- Parameters: concentration or dose not given beside the values
- particulars: concentration not given here
quantity-measured: inhibition

Prompt line: Give the reported inhibition for CCOC(=O)CN1CCN(c2nc3ccccc3nc2C#N)CC1 (system: 5-HT3 receptor (Cavia porcellus)).
Response line: 14.4%

Prompt line: Give the reported inhibition for N#Cc1nc2ccccc2nc1N1CCN(CCc2ccccc2)CC1 (system: 5-HT3 receptor (Cavia porcellus)).
Response line: 29.2%

Prompt line: Give the reported inhibition for CC(=O)c1ccc(N2CCN(c3nc4ccccc4nc3C#N)CC2)cc1 (system: 5-HT3 receptor (Cavia porcellus)).
Response line: 7.4%

Prompt line: Give the reported inhibition for COc1cccc(N2CCN(c3nc4ccccc4nc3C#N)CC2)c1 (system: 5-HT3 receptor (Cavia porcellus)).
Response line: 3.5%

Prompt line: Give the reported inhibition for CCN1CCN(c2nc3ccc(N)cc3nc2C#N)CC1 (system: 5-HT3 receptor (Cavia porcellus)).
Response line: 43.5%

Prompt line: Give the reported inhibition for N#Cc1nc2ccccc2nc1N1CCN(c2cccc(C(F)(F)F)c2)CC1 (system: 5-HT3 receptor (Cavia porcellus)).
Response line: 39.5%
